Origin of measurements: ChEMBL document CHEMBL1138225

study target: Neuronal acetylcholine receptor; alpha4/beta2 (Rattus norvegicus, UniProt P09483+P12390)
Sequence (P09483 whole entry): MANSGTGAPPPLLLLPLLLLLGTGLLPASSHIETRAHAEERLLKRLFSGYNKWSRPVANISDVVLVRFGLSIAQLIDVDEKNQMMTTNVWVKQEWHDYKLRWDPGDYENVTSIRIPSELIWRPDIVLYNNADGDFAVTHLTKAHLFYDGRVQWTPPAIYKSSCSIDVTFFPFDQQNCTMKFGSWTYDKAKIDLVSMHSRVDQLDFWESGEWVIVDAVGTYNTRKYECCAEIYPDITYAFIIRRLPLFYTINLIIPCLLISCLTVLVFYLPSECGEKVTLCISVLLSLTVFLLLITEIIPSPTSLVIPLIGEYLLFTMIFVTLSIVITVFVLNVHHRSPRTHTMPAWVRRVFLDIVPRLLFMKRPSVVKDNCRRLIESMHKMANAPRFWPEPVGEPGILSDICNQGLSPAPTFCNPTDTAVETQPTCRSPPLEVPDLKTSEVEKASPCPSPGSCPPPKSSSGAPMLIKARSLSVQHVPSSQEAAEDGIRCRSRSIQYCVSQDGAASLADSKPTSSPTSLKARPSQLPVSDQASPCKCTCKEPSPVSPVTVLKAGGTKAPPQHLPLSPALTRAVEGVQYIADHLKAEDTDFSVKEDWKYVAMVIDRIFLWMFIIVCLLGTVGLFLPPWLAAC
Sequence (P12390 whole entry): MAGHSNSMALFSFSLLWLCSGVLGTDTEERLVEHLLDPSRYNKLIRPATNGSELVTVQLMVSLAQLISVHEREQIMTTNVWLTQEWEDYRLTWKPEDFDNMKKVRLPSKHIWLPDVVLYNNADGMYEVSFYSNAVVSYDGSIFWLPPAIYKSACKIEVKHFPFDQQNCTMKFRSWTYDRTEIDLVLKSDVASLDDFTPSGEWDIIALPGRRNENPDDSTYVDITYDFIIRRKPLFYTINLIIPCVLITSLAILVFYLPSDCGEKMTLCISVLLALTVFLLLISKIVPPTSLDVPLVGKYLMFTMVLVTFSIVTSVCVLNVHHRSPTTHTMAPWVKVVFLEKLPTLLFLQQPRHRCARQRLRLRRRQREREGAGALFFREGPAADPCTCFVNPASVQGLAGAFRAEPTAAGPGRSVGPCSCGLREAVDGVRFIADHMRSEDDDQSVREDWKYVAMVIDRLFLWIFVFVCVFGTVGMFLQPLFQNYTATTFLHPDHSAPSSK
test protocol: Displacement of [3H]cytisine from alpha-4-beta-2 ACHR in rat brain homogenate
observation type: pKi
Would you please state pKi, meaning minus log10 of the concentration in mol/L, as a bare number?

Below, 5 molecules whose answers are already recorded.
>>> measured_result("Clc1cc(N2CC[C@@H]3CN[C@@H]3C2)cnc1Cl")
10.57
>>> measured_result("Cc1cc(N2CC[C@H]3CN[C@H]3C2)cnc1Cl")
10.51
>>> measured_result("Clc1cc(N2CC[C@H]3CN[C@H]3C2)cnc1Cl")
10.60
>>> measured_result("COc1ccc(N2CC[C@@H]3CN[C@@H]3C2)cn1")
8.57
>>> measured_result("Cc1cncc(N2CC[C@@H]3CN[C@@H]3C2)c1")
10.19

Moving on to the next molecule.
INPUT: Form field: reported pKi of `N#Cc1cncc(N2CC[C@@H]3CN[C@@H]3C2)c1`
OUTPUT: 10.19

---

study target: Neuronal acetylcholine receptor; alpha3/beta4 (Homo sapiens, UniProt P30926+P32297)
test protocol: Maximal agonist activity at human alpha-3-beta-4 ACHR expressed in HEK293 cells assessed as change in intracellular calcium concentration by FLIPR relative to nicotine
Assay type: functional, cell-based
Measured Activity, listed per entry for reference.
Provide the reading as a plain figure in %.

>>> measured_result("c1cncc(N2C[C@H]3CCNC[C@H]32)c1")
97
>>> measured_result("Brc1cncc(N2CC[C@H]3CN[C@H]3C2)c1")
122
>>> measured_result("Clc1cc(N2C[C@@H]3CCNC[C@@H]32)cnc1Cl")
69
>>> measured_result("Brc1cc(N2CC[C@H]3CN[C@H]3C2)cnc1Br")
117
>>> measured_result("COc1ccc(N2CC[C@H]3CN[C@H]3C2)cn1")
88
>>> measured_result("COc1cc(N2CC[C@@H]3CN[C@@H]3C2)cnc1Br")
108

INPUT: Form field: reported Activity of `Cc1cc(N2C[C@H]3CCNC[C@H]32)cnc1Cl`
OUTPUT: 103

INPUT: Form field: reported Activity of `N#Cc1cc(N2C[C@H]3CCNC[C@H]32)cnc1Br`
OUTPUT: 100

INPUT: Form field: reported Activity of `Clc1cc(N2C[C@H]3CCNC[C@H]32)cnc1Cl`
OUTPUT: 103

INPUT: Form field: reported Activity of `COc1cc(N2CC[C@H]3CN[C@H]3C2)cnc1Br`
OUTPUT: 120

INPUT: Form field: reported Activity of `COc1cncc(N2C[C@H]3CCNC[C@H]32)c1`
OUTPUT: 88

---

Measured Activity, listed per entry for reference.
study target: Neuronal acetylcholine receptor; alpha3/beta4 (Homo sapiens, UniProt P30926+P32297)
test protocol: Maximal agonist activity at human alpha-3-beta-4 ACHR expressed in HEK293 cells assessed as change in intracellular calcium concentration by FLIPR relative to nicotine
Assay type: functional, cell-based
Provide the reading as a plain figure in %.

Below, 5 compounds whose answers are already recorded.
>>> measured_result("Clc1ccc(N2CC[C@@H]3CN[C@@H]3C2)nn1")
113
>>> measured_result("Cc1cc(N2C[C@@H]3CCNC[C@@H]32)cnc1Cl")
91
>>> measured_result("Clc1ccc(N2C[C@H]3CCNC[C@H]32)cn1")
93
>>> measured_result("N#Cc1cncc(N2C[C@@H]3CCNC[C@@H]32)c1")
91
>>> measured_result("Clc1ccc(N2CC[C@H]3CN[C@H]3C2)nn1")
128

Moving on to the next compound.
INPUT: // map `c1ncc(N2CC[C@H]3CN[C@H]3C2)cn1` to recorded Activity (system: Neuronal acetylcholine receptor; alpha3/beta4 (Homo sapiens, UniProt P30926+P32297))
OUTPUT: 121
